Target: dopamine autoreceptor (D2) (Rattus norvegicus)
Construct: from tissue; host or cells: rat striatum homogenate
Experiment: Affinity for the dopamine autoreceptor, rat striatal tissue homogenate (D2 Quin.)
Assay type: binding
Details: homogenized rat striatal brain tissue
measured_property: IC50 (nM)
// units = nM; emit number, no label

Can you look up the measured IC50 of O=C1Cc2c(NCCNCc3ccccc3)cccc2N1 [Example 1, hydrate] for me?
13.2

====

Target: dopamine D2 receptor (Rattus norvegicus, UniProt P61169)
Construct: from tissue; host or cells: limbic brain tissue homogenate
Sequence (P61169 whole entry): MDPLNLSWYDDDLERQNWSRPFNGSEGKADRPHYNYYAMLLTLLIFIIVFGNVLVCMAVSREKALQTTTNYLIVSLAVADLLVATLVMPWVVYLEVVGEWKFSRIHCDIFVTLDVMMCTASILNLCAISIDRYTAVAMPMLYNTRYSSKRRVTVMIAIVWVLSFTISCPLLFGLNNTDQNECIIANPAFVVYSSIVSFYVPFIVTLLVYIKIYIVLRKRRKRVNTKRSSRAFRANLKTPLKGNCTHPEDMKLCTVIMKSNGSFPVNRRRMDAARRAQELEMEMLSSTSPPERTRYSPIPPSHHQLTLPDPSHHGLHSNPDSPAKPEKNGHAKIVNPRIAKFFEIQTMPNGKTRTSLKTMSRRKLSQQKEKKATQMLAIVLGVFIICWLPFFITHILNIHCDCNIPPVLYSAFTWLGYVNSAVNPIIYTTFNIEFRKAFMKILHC
Assay: Affinity for the dopamine D2 receptor, 3H-spiroperidol binding in limbic brain tissue homogenate (D2 Spiper)
Conditions: 3H-spiroperidol (Spiper.); homogenized limbic brain tissue
Excerpt: High affinity for the dopamine D2 receptor was established by the standard experimental test procedure of Fields, et al., Brain Res., 136:578 (1977) and Yamamura et al., eds., Neurotransmitter Receptor Binding, Raven Press, N.Y. (1978). […]
measured_property: IC50 (nM)
// units = nM; emit number, no label

Can you look up the measured IC50 of O=C1Cc2c(NCCNCc3ccccc3)cccc2N1 [Example 1, hydrate] for me?
892
